Entry source: paper PMC10193203

# Assayed target: α-glycosidase
# Construct: gene MAL12; no source, supplier or assay protocol given
# Test method notes: inhibition assay at micro level, details not given
# Format: biochemical
# Setup conditions: value assigned by order of naming (printed as "in range"); text says "urease inhibition" under the α-glycosidase heading
Measured metric: IC50 (µM)
Answers are plain numbers, in µM.

O=C(N/N=C/c1ccc([N+](=O)[O-])cc1)c1cc2ccccc2cc1O [IF-2]; 12.3

Can you share its IC50? I mean this compound: CC(C)(C)c1cc(/C=N/NC(=O)c2cc3ccccc3cc2O)c(O)c(C(C)(C)C)c1 [IF-1]
1.33
